# method: Oral bioavailability in Beagle dog at 2 mg/kg, po
# Assay type: ADME, organism-based, Canis lupus familiaris
# conditions-used: in vivo
measure-name: bioavailability (%)
Give your result in % as a bare value.

Asked: bioavailability for CC(C)n1c(=O)c(C(=O)N[C@H]2C[C@H]3CC[C@@H](C2)N3C[C@@H](O)CN2CCN(S(C)(=O)=O)CC2)cc2ccccc21 ?
Given back: 63

----------
# method: Permeability across human Caco-2 cells assessed as permeability coefficient
# Assay type: ADME, cell-based
# conditions-used: read-out: permeability
Each entry gets -1 if its Papp stays under 20 ×10⁻⁶ cm/s, and 1 if its Papp is 20 ×10⁻⁶ cm/s or above.

{"smiles-entry": "CCOC(=O)N1CCN(CCCN2[C@@H]3CC[C@H]2C[C@@H](NC(=O)c2cc4ccccc4n(C(C)C)c2=O)C3)CC1", "label": 1}
{"smiles-entry": "CC(C)n1c(=O)c(C(=O)N[C@H]2C[C@H]3CC[C@@H](C2)N3CCCN2CCC[C@@H]2C(N)=O)cc2ccccc21", "label": -1}
{"smiles-entry": "CC(C)n1c(=O)c(C(=O)N[C@H]2C[C@H]3CC[C@@H](C2)N3CCCN2CCN(c3ccccc3)CC2)cc2ccccc21", "label": 1}
{"smiles-entry": "CC(C)n1c(=O)c(C(=O)N[C@H]2C[C@H]3CC[C@@H](C2)N3C[C@@H](O)CN2CCN(S(C)(=O)=O)CC2)cc2ccccc21", "label": -1}
{"smiles-entry": "CC(C)n1c(=O)c(C(=O)N[C@H]2C[C@H]3CC[C@@H](C2)N3CCCN2CCOCC2)cc2ccccc21", "label": 1}

# input for lookup
Asked: Hi team, for CC(C)n1c(=O)c(C(=O)N[C@H]2C[C@H]3CC[C@@H](C2)N3CCCCCCCN2CCC(CNS(C)(=O)=O)CC2)cc2ccccc21 , is the recorded Papp at or above 20 ×10⁻⁶ cm/s?
Given back: -1
